test system: Solute carrier family 12 member 5 (Homo sapiens)
test method notes: modulation of human KCC2 ion transport – cell-based, HEK293 KCC2, FluoZin-2 fluorescence, MLSMR, primary screen (AID 1456);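 further: slope of fluorescence scaled to starting intensity during 10 to 20 s after thallium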
settings: KCC2 cells, thallium flux FluoZin-2 fluorescence; at 10 µM
The whole screen tested about 190,000 compounds, of which about 4,100 (2.2%) were called active.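 How the source made its calls: active means thallium flux slope and its plate-corrected score both differing from the plate sample mean at a set confidence after two filtering rounds, in either direction; inactive means the rest.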 The list comes from a sample in which actives are over-represented; it also holds close analogues and randomly drawn compounds.
Outcome codes: t for active, f for inactive

>>> class_assignment("O=C(Nc1ccncc1)c1cc2ccccc2o1")
"f"
>>> class_assignment("O=C(COc1ccccc1[N+](=O)[O-])N/N=C/c1ccc[nH]1")
"f"
>>> class_assignment("CCOC(=O)c1c(NC(=S)Nc2ccccc2C)sc2c1CCC2")
"f"
>>> class_assignment("CCOCC(=O)Nc1sc2c(c1C(=O)OCC)CCCC2")
"f"
>>> class_assignment("COCCNC(=S)N1CCN(C)CC1")
"f"
>>> class_assignment("Cn1cc(CCC(=O)NCc2ccc3c(c2)OCO3)c2ccccc21")
"f"
>>> class_assignment("CCOC(=O)N/N=C1\\CC(C)S(=O)(=O)c2ccc(Cl)cc21 (configuration not stated)")
"f"
>>> class_assignment("CCOC(=O)c1cnc(COc2ccccc2Cl)[nH]c1=O")
"f"
>>> class_assignment("COc1ccc(CCNC(=O)C(=O)NCC2CCNCC2)cc1OC")
"f"
>>> class_assignment("O=C(COc1ccccc1)NCc1ccc2c(c1)OCO2")
"f"
>>> class_assignment("COc1cccc(NC(=O)C(Sc2nc3ccccc3c(=O)n2CC(C)C)c2ccccc2)c1 (configuration not stated)")
"t"
>>> class_assignment("N#Cc1c(NCCO)ccc([N+](=O)[O-])c1NCCO")
"f"

###

test system: Solute carrier family 12 member 5 (Homo sapiens) (UniProt Q9H2X9)
Sequence (Q9H2X9 whole entry, looked up): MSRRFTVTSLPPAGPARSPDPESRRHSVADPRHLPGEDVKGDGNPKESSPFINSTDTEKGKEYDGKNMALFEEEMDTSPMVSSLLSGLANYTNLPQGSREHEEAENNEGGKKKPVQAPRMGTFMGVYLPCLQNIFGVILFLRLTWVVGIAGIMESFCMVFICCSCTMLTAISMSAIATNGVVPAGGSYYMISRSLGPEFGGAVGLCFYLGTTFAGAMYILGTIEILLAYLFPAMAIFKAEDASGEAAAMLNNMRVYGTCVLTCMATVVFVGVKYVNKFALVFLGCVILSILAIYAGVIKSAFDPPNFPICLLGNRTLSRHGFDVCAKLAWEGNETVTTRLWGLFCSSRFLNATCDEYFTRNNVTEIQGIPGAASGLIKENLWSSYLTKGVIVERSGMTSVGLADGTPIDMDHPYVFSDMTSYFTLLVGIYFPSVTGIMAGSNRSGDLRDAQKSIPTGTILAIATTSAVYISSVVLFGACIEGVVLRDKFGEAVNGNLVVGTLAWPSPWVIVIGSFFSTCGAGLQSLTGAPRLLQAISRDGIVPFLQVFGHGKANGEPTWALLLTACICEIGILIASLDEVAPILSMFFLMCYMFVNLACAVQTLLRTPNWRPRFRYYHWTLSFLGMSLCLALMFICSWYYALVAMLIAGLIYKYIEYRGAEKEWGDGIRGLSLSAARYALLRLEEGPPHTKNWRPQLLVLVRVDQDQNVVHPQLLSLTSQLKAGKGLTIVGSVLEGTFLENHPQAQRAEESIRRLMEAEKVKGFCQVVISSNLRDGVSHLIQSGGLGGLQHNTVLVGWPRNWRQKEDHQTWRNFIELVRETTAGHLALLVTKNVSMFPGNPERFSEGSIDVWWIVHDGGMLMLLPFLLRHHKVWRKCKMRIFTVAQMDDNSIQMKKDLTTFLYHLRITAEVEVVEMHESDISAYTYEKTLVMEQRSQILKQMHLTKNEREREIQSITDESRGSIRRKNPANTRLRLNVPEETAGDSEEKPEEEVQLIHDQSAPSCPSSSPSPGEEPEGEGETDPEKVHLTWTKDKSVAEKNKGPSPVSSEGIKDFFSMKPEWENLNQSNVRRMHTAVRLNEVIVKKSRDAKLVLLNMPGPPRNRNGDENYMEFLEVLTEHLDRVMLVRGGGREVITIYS
test method notes: modulation of human KCC2 ion transport – cell-based, HEK293 KCC2, FluoZin-2 fluorescence, MLSMR, primary screen (AID 1456);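 further: slope of fluorescence scaled to starting intensity during 10 to 20 s after thallium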
settings: KCC2 cells, thallium flux FluoZin-2 fluorescence; at 10 µM
The campaign covered roughly 190,000 compounds. About 4,100 (2.2%) were called active.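 How the source made its calls: active means thallium flux slope and its plate-corrected score both differing from the plate sample mean at a set confidence after two filtering rounds, in either direction; inactive means the rest.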 The entries come from a sample that favours actives as a whole.
Outcome codes: Y for active, N for inactive

>>> class_assignment("CCOc1ccc(C2NC(=S)NC3=C2CCc2ccccc23)cc1 (centres undefined)")
"N"
>>> class_assignment("S=C(NCc1ccc2c(c1)OCO2)NCc1ccco1")
"N"
>>> class_assignment("O=S(=O)(NC(=S)Nc1ccccc1)c1ccc(F)cc1")
"N"
>>> class_assignment("N#Cc1nc(-c2ccc(OCc3ccccc3)cc2)oc1NCCCN1CCOCC1")
"N"
>>> class_assignment("O=S(=O)(c1ccc(F)cc1)N1CCN(C(=S)NC2CCCC2)CC1")
"N"
>>> class_assignment("CCOC(=O)C1CCCN(C(=O)C2CCN(c3nnc(-n4cccc4)s3)CC2)C1 (centres undefined)")
"N"
>>> class_assignment("NS(=O)(=O)c1ccc(NC(=S)NC(=O)c2cccc(Br)c2)cc1")
"N"
>>> class_assignment("COc1ccc(N2C(=O)c3ccccc3NC2c2ccc(OC)c(CN3CCOCC3)c2)cc1 (centres undefined)")
"N"
>>> class_assignment("Cc1ccc(COc2ccc(C(=O)NN)cc2)cc1")
"N"
>>> class_assignment("CCOC(=O)c1ccccc1N1C(=O)C2Sc3[nH]c(=O)sc3C(/C=C/c3ccccc3)C2C1=O (centres undefined)")
"Y"
>>> class_assignment("CCCc1nc2sc3c(c2c(=O)n1NC(=O)CCCl)CCCC3")
"N"
>>> class_assignment("Cc1oc(C(N)=O)cc1COc1ccc(C(N)=O)cc1")
"Y"
>>> class_assignment("NS(=O)(=O)c1ccc(NC(=S)NC(=O)c2cccnc2)cc1")
"Y"
>>> class_assignment("Cc1ccc(OCc2nc(C#N)c(N3CCCC3)o2)cc1")
"N"
>>> class_assignment("CCn1c(SCC(=O)Nc2sc(C)c(C)c2C#N)nnc1C1CC1")
"N"
>>> class_assignment("Nc1nc(NCC2CCCO2)nc(Nc2ccccc2F)c1[N+](=O)[O-] (centres undefined)")
"N"
>>> class_assignment("CCCc1ccc(C(=O)[C@@H]2[C@@H](C(C)=O)N3c4ccc(F)cc4C=C[C@@H]3[C@@]23C(=O)Nc2ccccc23)cc1")
"N"
>>> class_assignment("CCCCCCCC(=O)OC(CN1CCCCCC1)CN1CCCC1=O (centres undefined)")
"N"
>>> class_assignment("O=S(=O)(c1ccc(F)cc1)N1CCN(C(=S)NCc2ccco2)CC1")
"Y"
>>> class_assignment("COc1ccc(NC(=O)CCN2C(=O)/C(=C/c3ccc4c(c3)OCO4)SC2=S)cc1")
"N"
>>> class_assignment("CCN(CC(=O)Nc1ccc(S(=O)(=O)N2CCCC2)cc1)CC(=O)Nc1cccc(OC)c1")
"N"
>>> class_assignment("Cc1ccccc1-c1n[nH]c(=S)n1/N=C/c1ccc(-c2ccccc2Br)o1")
"Y"
>>> class_assignment("COc1ccc(OCc2cccc(C(=O)N3CCCC3)c2)cc1")
"N"
>>> class_assignment("O=[N+]([O-])c1ccccc1/C=N/n1c(COc2ccccc2)n[nH]c1=S")
"Y"
>>> class_assignment("CC(OC(=O)c1ccccc1N1C(=O)C2C3CCC(C3)C2C1=O)C(=O)c1ccccc1 (centres undefined)")
"N"
>>> class_assignment("O=C(NC1(C(F)(F)F)NC(=O)N(C2CCCCC2)C1=O)c1ccco1 (centres undefined)")
"N"
>>> class_assignment("Cc1cccc(C2C3=C(CCCC3=O)N=C3c4ccccc4C(=O)C32)c1 (centres undefined)")
"N"
>>> class_assignment("O=C(CCc1n[nH]c(=O)[nH]c1=O)N/N=C/c1ccc(Br)o1")
"N"
>>> class_assignment("O=C1/C(=C/c2ccc3c(c2)OCO3)CCC/C1=C\\c1ccc2c(c1)OCO2")
"N"
>>> class_assignment("O=c1c2c3c(sc2n(CCN2CCCC2)c(=O)n1Cc1ccccc1)CCCCC3")
"N"
>>> class_assignment("Cc1ccc(S(=O)(=O)NC2(C(F)(F)F)NC(=O)N(CCc3ccccc3)C2=O)cc1 (centres undefined)")
"N"
>>> class_assignment("COC(=O)c1cccc(NS(C)(=O)=O)c1")
"N"
>>> class_assignment("O=C(NCc1cccnc1)C(=O)Nc1nc(-c2ccccc2)cs1")
"N"
>>> class_assignment("O=C(C1CCN(c2nnc(-n3cccc3)s2)CC1)N1CCc2ccccc2C1")
"Y"
>>> class_assignment("CCOC(=O)Cc1cc(=O)[nH]c(/N=C(\\N)Nc2ccc(OC)cc2)n1")
"N"
>>> class_assignment("O=C(N/N=C/c1ccc(Br)o1)c1cncc(Br)c1")
"Y"
>>> class_assignment("COc1ccc(NC(=O)C2=C(C)NC(=O)NC2c2ccccc2[N+](=O)[O-])cc1 (centres undefined)")
"N"
>>> class_assignment("Cc1ccc(Cl)cc1-c1ccc(/C=N/n2cnnc2)o1")
"N"
>>> class_assignment("Cc1ccc(-c2n[nH]c(=S)n2/N=C/c2cc3c(cc2[N+](=O)[O-])OCO3)cc1")
"N"
>>> class_assignment("CCN1CCN(CC(=O)c2cc(OC)c(OC)c(OC)c2)CC1")
"N"
>>> class_assignment("CCc1c(SCCC(=O)O)nc2ccccc2c1C")
"Y"
>>> class_assignment("C=CCNC(=S)NNC(=O)c1ccc(Br)o1")
"N"
>>> class_assignment("CCn1c(=S)[nH]c2sc3c(c2c1=O)CCCCC3")
"Y"
>>> class_assignment("Cc1ccc(C(=O)N/N=C\\c2cc(Br)c(Br)o2)cn1")
"N"

###

test system: Solute carrier family 12 member 5 (Homo sapiens)
test method notes: modulation of human KCC2 ion transport – cell-based, HEK293 KCC2, FluoZin-2 fluorescence, MLSMR, primary screen (AID 1456);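 further: slope of fluorescence scaled to starting intensity during 10 to 20 s after thallium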
settings: KCC2 cells, thallium flux FluoZin-2 fluorescence; at 10 µM
About 4,100 (2.2%) of roughly 190,000 compounds were called active.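 Rule for the calls: active = thallium flux slope and its plate-corrected score both differing from the plate sample mean at a set confidence after two filtering rounds, in either direction; inactive = the rest.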 This is one part of a sample in which actives are shown more often than they occur.
Outcome codes: active, inactive

>>> class_assignment("Cn1c(=O)cc(OCC(=O)N2CCN(c3ccccc3F)CC2)c2ccccc21")
"inactive"
>>> class_assignment("CCNC(=S)N1CCN(CCN=CC2=C(O)CC(C)(C)CC2=O)CC1")
"inactive"
>>> class_assignment("NNC(=O)c1oc2nc(-c3ccccc3)cc(-c3ccco3)c2c1N")
"inactive"
>>> class_assignment("Cc1c(C(=O)NC(=S)NCc2cccnc2)oc2ccccc12")
"active"
>>> class_assignment("C/C(=N/NC(=S)Nc1ccccc1)c1ccc2c(c1)OCO2")
"active"
>>> class_assignment("CCOC(=O)c1ccc(N=C2SC(C(=O)NC)CC(=O)N2CCc2ccccc2)cc1 (stereo unspecified)")
"inactive"

###

test system: Solute carrier family 12 member 5 (Homo sapiens) (UniProt Q9H2X9)
test method notes: modulation of human KCC2 ion transport – cell-based, HEK293 KCC2, FluoZin-2 fluorescence, MLSMR, primary screen (AID 1456);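 further: slope of fluorescence scaled to starting intensity during 10 to 20 s after thallium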
settings: KCC2 cells, thallium flux FluoZin-2 fluorescence; at 10 µM
In all, about 190,000 compounds went through this assay and about 4,100 (2.2%) were called active. This is one part of a sample in which actives are shown more often than they occur.
Entry flag: 1.0 if B-score of Tl+ flux slope (higher = more flux/activation; lower = inhibition) reaches -0.6; 0.0 if it does not.

>>> class_assignment("CC(C)C(NC(=O)c1ccc(Cl)cc1)C(=O)O (stereo not drawn)")
1.0
>>> class_assignment("NC(=S)N/N=C/c1coc2cc(Cl)ccc2c1=O")
1.0
>>> class_assignment("CCOC(=O)c1cc2cc(-c3c(C(=O)OCC)oc4cc(O)cc(O)c4c3=O)ccc2o1")
0.0
>>> class_assignment("COc1ccccc1-n1cn[nH]c1=S")
1.0
>>> class_assignment("NC(=O)NC(=O)CSc1nc2cc([N+](=O)[O-])ccc2n1-c1cccc(C(F)(F)F)c1")
1.0
>>> class_assignment("COc1cc([N+](=O)[O-])ccc1NC(=S)N1CCN(c2ccccn2)CC1")
0.0
>>> class_assignment("CC(C)c1ccc(NC(=S)NNc2ccc(Cl)c(C(=O)O)c2)cc1")
1.0
>>> class_assignment("COc1ccc(CCNC(=O)CSc2nc3[nH]ncc3c(=O)n2-c2cccc(C(F)(F)F)c2)cc1OC")
1.0
>>> class_assignment("CC(=O)NCc1ccc(S(=O)(=O)NC2CCN(Cc3ccccc3)CC2)cc1")
0.0
>>> class_assignment("O=C(Nc1ccccc1)c1cc2ccccc2[nH]1")
0.0
>>> class_assignment("Cc1ccccc1NC(=S)Nc1cccc([N+](=O)[O-])c1")
1.0
>>> class_assignment("c1ccc2[nH]c(-c3nc4ccccc4[nH]3)nc2c1")
1.0
>>> class_assignment("CCOc1ccc(NC(=O)C2CCCN(C(=O)Nc3ccccc3)C2)cc1 (stereo not drawn)")
1.0
>>> class_assignment("Cc1cc(C(=O)NNC(=S)Nc2ccccc2C)cs1")
1.0
>>> class_assignment("CC(C)CNC(=S)NC(=O)c1ccc(Cl)cc1")
1.0
>>> class_assignment("CC(C)(C)OC(=O)NCCCCCC(=O)N/N=C/c1coc2ccccc2c1=O")
0.0
>>> class_assignment("Cc1cc(F)ccc1NC(=O)C(C)n1c2ccccc2c2nc(=O)cc(C)n21 (stereo not drawn)")
1.0
>>> class_assignment("O=c1c(-c2ccc3c(c2)OCCO3)c(C(F)(F)F)oc2cc(O)cc(O)c12")
0.0
>>> class_assignment("COc1ccc(-n2cnnc2SCC(=O)Nc2cccc([N+](=O)[O-])c2)cc1")
1.0
>>> class_assignment("O=C(O)CCCCCCCCCC[n+]1ccccc1")
1.0
>>> class_assignment("O=C(Nc1ccc([N+](=O)[O-])cc1)C1CC12CCC2 (stereo not drawn)")
1.0
>>> class_assignment("O=S(=O)(Nc1n[nH]c(C(F)(F)F)n1)c1ccccc1")
0.0
>>> class_assignment("C=CCC1(C#N)C(=S)NC(C)=C(C(=O)OCC)C1c1ccccc1 (stereo not drawn)")
1.0

Each recorded value in this set is attributed to PubChem BioAssay AID1456.
